Target: human CB1 receptor (hCB1) (Homo sapiens, UniProt P21554)
Construct: host or cells: Chinese Hamster Ovary (CHO) cells
Sequence (P21554 whole entry): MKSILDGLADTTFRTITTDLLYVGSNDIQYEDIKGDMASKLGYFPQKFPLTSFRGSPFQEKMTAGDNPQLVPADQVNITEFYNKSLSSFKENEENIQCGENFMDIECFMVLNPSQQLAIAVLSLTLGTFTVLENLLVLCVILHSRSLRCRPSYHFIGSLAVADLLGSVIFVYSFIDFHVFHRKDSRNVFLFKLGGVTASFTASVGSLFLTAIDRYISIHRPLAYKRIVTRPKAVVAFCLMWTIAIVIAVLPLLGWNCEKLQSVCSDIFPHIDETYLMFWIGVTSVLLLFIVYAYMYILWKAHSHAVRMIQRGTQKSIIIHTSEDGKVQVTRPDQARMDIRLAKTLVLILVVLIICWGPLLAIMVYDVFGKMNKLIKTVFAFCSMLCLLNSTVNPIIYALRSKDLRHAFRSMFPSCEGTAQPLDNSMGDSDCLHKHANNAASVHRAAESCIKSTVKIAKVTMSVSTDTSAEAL
Assay Details: cAMP accumulation assay (Lance TR-FRET) in CHO-hCB1 cells
Type: cell-based
Condition Description: CHO cells stably expressing hCB1; forskolin-stimulated; mean ± SEM
Value Type: hCB1 cAMP EC50

N#Cc1c(Oc2cccc(NS(=O)(=O)c3ccc(OC(F)(F)F)cc3)c2)cccc1C(F)(F)F | Inactive
CCCCCS(=O)(=O)Nc1ccc(Oc2cccc(C(F)(F)F)c2C#N)cc1 | Inactive
N#Cc1c(Oc2cccc(NS(=O)(=O)c3cccc(OC(F)(F)F)c3)c2)cccc1C(F)(F)F | Inactive
